- assayedSystem: UniProt:O95831
- Sequence (O95831 122-613): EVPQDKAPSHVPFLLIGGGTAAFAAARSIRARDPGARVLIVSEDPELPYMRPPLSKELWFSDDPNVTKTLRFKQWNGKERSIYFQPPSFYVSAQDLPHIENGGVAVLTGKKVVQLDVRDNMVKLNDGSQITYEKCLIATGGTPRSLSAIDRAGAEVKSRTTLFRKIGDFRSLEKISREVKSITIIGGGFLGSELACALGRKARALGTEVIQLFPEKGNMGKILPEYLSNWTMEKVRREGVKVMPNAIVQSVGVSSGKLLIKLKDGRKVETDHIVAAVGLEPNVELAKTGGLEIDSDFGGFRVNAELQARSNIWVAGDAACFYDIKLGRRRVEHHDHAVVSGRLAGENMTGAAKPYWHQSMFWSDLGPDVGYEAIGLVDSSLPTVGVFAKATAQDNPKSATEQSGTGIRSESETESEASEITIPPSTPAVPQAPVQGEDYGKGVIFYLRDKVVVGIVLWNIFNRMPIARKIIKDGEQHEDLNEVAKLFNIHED
quantityMeasured: Kd (µM)
Could you give me the number in µM? Just the number is fine.

Req: Consider the compound `O=C(O)C1=CC(=C(c2ccc(O)c(C(=O)O)c2)c2ccc(O)c(C(=O)O)c2)C=CC1=O` and give its measured Kd.
Resp: 19
